measured on: Methionine--tRNA ligase (Staphylococcus aureus subsp. aureus MW2, UniProt Q8NY00)
test readout: IC50 (nM)

| query smiles | measured on | IC50 (nM) |
| --- | --- | --- |
| CCOc1c(Br)cc(OC)cc1CNCCCNc1nc(O)c2sccc2n1 | Methionine--tRNA ligase (Staphylococcus aureus subsp. aureus MW2, UniProt Q8NY00) | 3.3 |
| CCOc1c(Br)cc(Br)cc1CNCCCNc1nc(O)c2sccc2n1 | Methionine--tRNA ligase (Staphylococcus aureus subsp. aureus MW2, UniProt Q8NY00) | 4.9 |

I: Brc1cc(Br)c2c(c1)[C@H](NCCCNc1nc3ncccc3[nH]1)CCN2
II: Oc1nc(NCCCNCc2cc(Br)cc(Br)c2)nc2c1CCC2
III: Brc1cc(Br)cc(CNCCCNc2nc3ccccc3[nH]2)c1
IV: O=C(NCCCNCc1cc(Br)cc(Br)c1)Nc1ccccc1
Order the items by recorded IC50; the first position goes to the largest value. Would you mind listing the labels in the order requested? II, IV, III, I

----------
Let's go through some IC50 measurements on Methionine--tRNA ligase (Staphylococcus aureus subsp. aureus MW2, UniProt Q8NY00) together.
test readout: IC50 (nM)

Solved entries:
| compound | readout number |
| --- | --- |
| CCOc1c(Br)cc(Br)cc1CNCCCNc1nc2ccccc2[nH]1 | 17 |
| Oc1nc(NCCCNCc2cc(Br)cc(Br)c2)nc2ccccc12 | 8.1 |
| CCOc1c(Br)cc(Cl)cc1CNCCCNc1nc2ccccc2[nH]1 | 3.8 |
| CCOc1c(Br)cc(OC)cc1CNCCCNc1nc(O)c2ccccc2n1 | 7 |
| Brc1cc(Br)c2c(c1)C(NCCCNc1nc3ccccc3[nH]1)CCN2 (stereo unspecified) | 13 |

P: CCc1cc(I)c2c(c1)C(NCCCNc1nc3ccc[nH]c-3n1)CCN2 (stereo unspecified)
Q: Brc1cc(Br)cc(CNCCCNc2nc3ccc[nH]c-3n2)c1
Name the one with the greater IC50 value, either P or Q as given. # answer = label of selected item P
(P: 18 nM, Q: 5 nM)

----------
pIC50: −log10 of the molar value.
Each entry below carries its measured pIC50, system: Methionine--tRNA ligase (Staphylococcus aureus subsp. aureus MW2).
test readout: pIC50

| compound | measured on | pIC50 |
| --- | --- | --- |
| Oc1nc(NCCCNC2CCNc3c(Br)cc(Br)cc32)nc2ccsc12 (centres undefined) | Methionine--tRNA ligase (Staphylococcus aureus subsp. aureus MW2) | 7.89 |
| CCc1cc(I)c2c(c1)C(NCCCNc1nc(O)c3ccccc3n1)CCN2 (centres undefined) | Methionine--tRNA ligase (Staphylococcus aureus subsp. aureus MW2) | 7.77 |
